Inhibition index by entry:
# Tested on: Escherichia coli B
# experimentalDetails: Competitive inhibition of Escherichia coli B H2-pteroate synthetase assessed as decrease in H2-pteroate formation using [7-14C]-PABA as substrate treated with enzyme for 10 mins prior to substrate challenge for 40 mins by radioassay method
observedProperty: Inhibition index

> print(dat)
                                    molecule  observedproperty  recordedvalue
 1    Nc1ccc(C(=O)N[C@H](CCC(=O)O)C(=O)O)cc1  Inhibition index            250
 2                     CN(C)C(=O)c1ccc(N)cc1  Inhibition index            400
 3                  Nc1ccc(C(=O)c2ccccc2)cc1  Inhibition index            800
 4  CCOC(=O)CC[C@H](NC(=O)c1ccc(N)cc1)C(=O)OCC  Inhibition index            600
 5                 CCOC(=O)CC(=O)c1ccc(N)cc1  Inhibition index            105
 6  Nc1ccc(C(=O)CC(C(=O)O)c2ccccc2)cc1 (stereo in doubt; 26)  Inhibition index             40
 7                        CNC(=O)c1ccc(N)cc1  Inhibition index            120
 8                         CC(=O)c1ccc(N)cc1  Inhibition index            210
 9                        CCC(=O)c1ccc(N)cc1  Inhibition index            180
10                         NC(=O)c1ccc(N)cc1  Inhibition index             53
11               Nc1ccc(C(=O)NCCc2ccccc2)cc1  Inhibition index            800
12                        COC(=O)c1ccc(N)cc1  Inhibition index            450
13  Nc1ccc(C(=O)CC(C(=O)O)c2ccccc2)cc1 (stereo in doubt; 25)  Inhibition index            480
14                       CCOC(=O)c1ccc(N)cc1  Inhibition index            600
15  Nc1ccc(C(=O)CC(C(=O)O)c2ccccc2)cc1 (racemic)  Inhibition index             74
16                  Nc1ccc(C(=O)CCC(=O)O)cc1  Inhibition index             55
17                 COC(=O)CNC(=O)c1ccc(N)cc1  Inhibition index            550
18                 Nc1ccc(C(=O)Nc2ccccc2)cc1  Inhibition index            600
19   Nc1ccc(C(=O)N[C@@H](CCC(=O)O)C(=O)O)cc1  Inhibition index             76
20                Nc1ccc(C(=O)NCCCC(=O)O)cc1  Inhibition index            700
21                  Nc1ccc(C(=O)NCC(=O)O)cc1  Inhibition index            260
22                CCOC(=O)CCC(=O)c1ccc(N)cc1  Inhibition index            460

---

# experimentalDetails: Dissociation constant, pKa of the compound
# Type: physicochemical
observedProperty: pKa

> print(dat)
          chemicalstructure  recordedvalue
1         CC(=O)c1ccc(N)cc1            2.5
2        COC(=O)c1ccc(N)cc1           2.46
3              Cc1ccc(N)cc1            5.1
4  Nc1ccc(C(=O)c2ccccc2)cc1           2.24
5        Nc1ccc(CC(=O)O)cc1            3.6
6       CCOC(=O)c1ccc(N)cc1            2.5
